Assay: in vitro
Conditions: African green monkey, CPI Inhibition IC50 (cytotoxic), Parainfluenza Type 3 Virus test
READOUT LABEL: IC50 (µg/mL)

COMPOUND: O=c1cc(-c2ccc(O)c(-c3c(O)cc4oc(-c5ccc(O)cc5)cc(=O)c4c3O)c2)oc2cc(O)cc(O)c12
READOUT LABEL: IC50
MEASUREMENT UNIT: µg/mL
RESULT NUMBER: 56
--
COMPOUND: O=C1CC(c2ccc(O)cc2)Oc2cc(O)c(-c3c(O)cc(O)c4c3OC(c3ccc(O)cc3)CC4=O)c(O)c21 (centres unmarked)
READOUT LABEL: IC50
MEASUREMENT UNIT: µg/mL
RESULT NUMBER: 47
--
COMPOUND: O=c1cc(-c2ccc(Oc3c(O)cc4oc(-c5ccc(O)cc5)cc(=O)c4c3O)cc2)oc2cc(O)cc(O)c12
READOUT LABEL: IC50
MEASUREMENT UNIT: µg/mL
RESULT NUMBER: 1
